# TARGET OR TEST SYSTEM: OX2R (Oryctolagus cuniculus, UniProt G1STQ8)
# Sequence (G1STQ8 1-444): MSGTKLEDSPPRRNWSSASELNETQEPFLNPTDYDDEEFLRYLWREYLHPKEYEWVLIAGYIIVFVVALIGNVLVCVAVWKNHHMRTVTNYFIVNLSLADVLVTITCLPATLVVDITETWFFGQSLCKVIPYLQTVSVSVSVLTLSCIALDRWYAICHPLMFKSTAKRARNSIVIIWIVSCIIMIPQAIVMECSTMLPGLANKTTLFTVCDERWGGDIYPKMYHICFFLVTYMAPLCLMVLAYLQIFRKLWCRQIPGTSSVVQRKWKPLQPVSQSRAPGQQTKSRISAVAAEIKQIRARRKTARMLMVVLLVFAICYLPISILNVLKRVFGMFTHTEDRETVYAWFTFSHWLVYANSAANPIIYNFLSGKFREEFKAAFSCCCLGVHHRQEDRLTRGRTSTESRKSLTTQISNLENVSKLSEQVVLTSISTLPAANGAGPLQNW
# EXPERIMENTAL PROTOCOL: Inhibition of orexin-peptide-A-induced calcium mobilization in CHO cells, rabbit OX2R
# Assay type: cell-based
MEASUREMENT KIND: Kb (nM)
Give the quantity in nM, number only.

CHEM SMILES: COc1ccc(CNC(=O)c2cc(-c3cncc(Cl)c3)cnc2-c2ccccn2)nc1OC
UNIT DESCRIPTOR: nM
Kb: 10

CHEM SMILES: COc1ccc(CNC(=O)c2cc(-c3cncc(C)c3)ncc2-c2ccccc2)nc1OC
UNIT DESCRIPTOR: nM
Kb: 22

CHEM SMILES: COc1ccc(CNC(=O)c2cc(-c3cncc(C)c3)ncc2-c2nccs2)nc1OC
UNIT DESCRIPTOR: nM
Kb: 27

// Input: Cc1ccc(-c2ncccn2)c(C(=O)N2C[C@H](COc3ccc(F)cn3)CC[C@H]2C)c1 . Output its Kb only.
16

Entry COc1ccc(CNC(=O)c2cc(-c3cc(Cl)cc(Cl)c3)cnc2-c2cccnc2)cc1OC needs its Kb filled in; supply it.
30
